- Study Target: T1, human G-protein-coupled receptor family C group 5 member D (GPRC5D) (human, UniProt Q9NZD1 1-345)
- T1 construct: whole, on cells; also called human GPRC5D protein
- T1 sequence (Q9NZD1 whole entry): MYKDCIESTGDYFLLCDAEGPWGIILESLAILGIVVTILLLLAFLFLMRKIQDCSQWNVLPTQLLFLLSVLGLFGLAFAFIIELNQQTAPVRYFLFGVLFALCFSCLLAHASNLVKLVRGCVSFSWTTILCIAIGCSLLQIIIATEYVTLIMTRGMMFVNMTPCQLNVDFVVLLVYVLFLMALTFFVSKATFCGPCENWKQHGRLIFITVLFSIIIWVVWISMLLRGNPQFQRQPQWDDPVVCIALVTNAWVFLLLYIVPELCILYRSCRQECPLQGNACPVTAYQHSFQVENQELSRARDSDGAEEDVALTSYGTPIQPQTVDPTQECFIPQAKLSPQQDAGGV
- Protocol Details: FACS, CHO-K1/GPRC5D
For each entry below, report its Bottom value.
Number, no unit, nothing else.

The reported value for 37-H2L3 (antibody, V domains shown, humanized 37B9C4, VH v2 x VL v3) VH: EVQLVESGGGLVQPGGSLRLSCAASGFTFSDYWMNWVRQSPGKGLEWVAEIRLKSNNYATHYAESVKGRFTISRDNAKSSLYLQMNSLRAEDTAVYYCTRPLLWFRRYYAMDYWGQGTLVTVSS VL: DIQMTQSPSSLSASVGDRITITCSASQGISNYLNWYQQKPGKTVKLLIYYTSSLHSGVPSRFSGSGSGTDYTLTISSLQPEDFATYYCQQYSKLPFTFGSGTKLEIK in terms of Bottom is 8050

37-H3L2 (antibody, V domains shown, humanized 37B9C4, VH v3 x VL v2) VH: EVQLVESGGGLVQPGGSLRLSCAASGFTFSDYWMNWVRQSPGKGLEWVAEIRLKSNNYATHYAESVKGRFTISRDDSKSSVYLQMNSLRAEDTAVYYCTRPLLWFRRYYAMDYWGQGTLVTVSS VL: DIQMTQSPSSLSASVGDRVTITCSASQGISNYLNWYQQKPGKTVKLLIYYTSSLHSGVPSRFSGSGSGTDYTLTISSLQPEDFATYYCQQYSKLPFTFGQGTKLEIK yielded Bottom of 9190

Bottom in this record for 37-H2L2 (antibody, V domains shown, humanized 37B9C4, VH v2 x VL v2) VH: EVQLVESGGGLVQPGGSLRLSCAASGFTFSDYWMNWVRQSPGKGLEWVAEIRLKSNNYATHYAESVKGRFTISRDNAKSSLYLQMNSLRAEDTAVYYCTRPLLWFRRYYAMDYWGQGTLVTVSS VL: DIQMTQSPSSLSASVGDRVTITCSASQGISNYLNWYQQKPGKTVKLLIYYTSSLHSGVPSRFSGSGSGTDYTLTISSLQPEDFATYYCQQYSKLPFTFGQGTKLEIK : 9380

Just for reference, patent US12281162 is where these values come from.
